# Measurement Notes: NCI Yeast Anticancer Drug Screen. Data for the mlh1 rad18 strain (AID 175)
# Recorded Conditions: S. cerevisiae mlh1 rad18 strain growth inhibition; at 50.0 µM; active compounds read high
This is part of a sample that, as a whole, favours compounds with a hit. Of some 79,000 tested, about 15% had one in any assay.
Tag: satisfied if measured growth inhibition is not below 10%, not satisfied if it is.

Example entries begin here.
Compound: COc1ccc(Nc2nc3c(N)cc(C(F)(F)F)cc3nc2-c2ccccc2)cc1OC
Assigned Label: not satisfied

Compound: CC(C)OC(=O)Nc1cccc(NC(=O)OCCCl)c1
Assigned Label: not satisfied

Exam item: Does the reported growth inhibition for CC(C)NCC(=O)CCCBr fall at or above the 10% mark?
Marked response: satisfied

Exam item: Does the reported growth inhibition for CSc1ccccc1C(C)(C)O fall at or above the 10% mark?
Marked response: satisfied

Exam item: Does the reported growth inhibition for CC1CC[P+](C)(Cc2ccccc2)C1 (mixture of isomers) fall at or above the 10% mark?
Marked response: satisfied

Exam item: Does the reported growth inhibition for COC(=O)C(N)C(C)(C)S (configuration not stated) fall at or above the 10% mark?
Marked response: not satisfied

Exam item: Does the reported growth inhibition for O=c1c(-c2ccc(O)cc2)coc2cc(O)cc(O)c12 fall at or above the 10% mark?
Marked response: not satisfied

----------
# Measurement Notes: NCI Yeast Anticancer Drug Screen. Data for the mec2-1 strain (AID 157)
# Recorded Conditions: S. cerevisiae mec2-1 strain, at 50.0 µM, active compounds read high
About 79,000 compounds went through this panel and 15% of them were active in at least one assay; those are over-represented in the sample as a whole.
Value Type: growth inhibition (%)
Give bare numbers, in %.

Take a look at these entries with their results.
Molecule: CC(=O)NC1=C/C(=C/COC(C)=O)OC1=O
growth inhibition (%): -9.9

Molecule: O=C(c1ccccc1)c1cccc2c1ccc1ccccc12
growth inhibition (%): 38.9

Molecule: N#C/C(=C\c1cccnc1)c1ccc(Br)cc1
growth inhibition (%): 36.4

Molecule: Cc1c(/C=N/N(C)C)oc2c1cc(O)c1ncccc12
growth inhibition (%): -4.4

Molecule: CNc1nc(NC)nc(-c2ccccc2)n1
growth inhibition (%): -16.1

Exam item: Given COC(=O)C1(NC(=O)C2(N3C(=O)c4ccccc4C3=O)CCCC2)CCCC1 , state its recorded growth inhibition.
Marked response: -0.95

----------
# Measurement Notes: NCI Yeast Anticancer Drug Screen. Data for the mec2-1 strain (AID 157)
# Recorded Conditions: S. cerevisiae mec2-1 strain, at 50.0 µM, active compounds read high
This is part of a sample that, as a whole, favours compounds with a hit. Of some 79,000 tested, about 15% had one in any assay.
Value Type: growth inhibition (%)
One number for each entry, in %.

Compound: O=C1NC(=O)c2c(Br)c(Br)c(Br)c(Br)c21
Quantity Unit: %
growth inhibition: -32.9

// each compound listed below needs its growth inhibition
1. O=C(CO)C(O)C(O)C(O)CO (stereo unspecified)
2. O=C1CSC(c2ccc(F)cc2)N1c1nncs1 (stereo unspecified)
3. Cc1ccc(Cl)cc1NC(=O)Oc1ccccc1C(=O)OCc1ccccc1
4. O=C(/C=C/c1ccccn1)c1ccc(Cl)cc1
5. COc1ccc(CC2COC(=O)C2Cc2ccc(OC)c(OC)c2)cc1OC (stereo unspecified)
6. NC(=O)CN(CC(N)=O)C(N)=O

Marked response:
1. -9.75
2. 3.65
3. -1.55
4. 10.7
5. 5.95
6. -18

// each compound listed below needs its growth inhibition
1. C(CCC[Si]12OCCN(CCO1)CCO2)CC[Si]12OCCN(CCO1)CCO2
2. CC(=O)Oc1cccc2c1ccc1nonc12
3. COC(=O)NCC(OC(=O)c1cc2c(cc1I)OCO2)C1=CCCCC1 (stereo unspecified)
4. CC(C)(C)C1=CC(=O)OC1(Cl)C(C)(C)C (stereo unspecified)
5. CSc1ccc2c(c1)Cc1cc(N)ccc1-2
6. CNC(=O)OCc1c(COC(=O)NC)c(-c2ccc(S(C)(=O)=O)cc2)n(C)c1C
7. N#CC1(C#N)CC1c1ccccc1 (stereo unspecified)
8. CCC(/C=C\C(C)C1CCC2C3CC=C4CC(OC)CCC4(C)C3CCC12C)C(C)C (stereo unspecified)

Marked response:
[-1.8, 0.35, 30.1, 6.8, 10.6, -3.3, 10.7, 5.1]

----------
# Measurement Notes: NCI Yeast Anticancer Drug Screen. Data for the rad50 strain (AID 155);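 also: 0% = growth of vehicle-only cultures of the same strain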
# Recorded Conditions: S. cerevisiae rad50 strain growth inhibition; at 50.0 µM; active compounds read high
The panel holds about 79,000 compounds, 15% with a hit somewhere; the sample as a whole holds those more often.
Value Type: growth inhibition (%)
Answers are plain numbers, in %.

Compound: NS(=O)(=O)c1ccc(NCc2cnc3ccccc3c2)cc1
Quantity Unit: %
growth inhibition: -4.65
//
Compound: CC(=O)OCC1OC(n2c(Br)nc3c(N)ncnc32)C(O)C1O (stereo unspecified)
Quantity Unit: %
growth inhibition: -3.35
//
Compound: CN1CC[C@H]([C@@H](O)c2ccccc2)C1=O
Quantity Unit: %
growth inhibition: 4.95
//
Compound: O=C1NC(=O)C(c2cccc(F)c2)N1 (stereo unspecified)
Quantity Unit: %
growth inhibition: -12.1
//
Compound: COc1c(OC2OC(CO)C(O)C(O)C2O)cc2occ(-c3ccc4c(c3)OCO4)c(=O)c2c1O (stereo unspecified)
Quantity Unit: %
growth inhibition: 23.6

Exam item: Given Cc1cc(C)c(NC(=O)Nc2ccc(C(Cl)(Cl)Cl)cc2)c(C)c1 , state its recorded growth inhibition.
Marked response: 4.9

----------
# Measurement Notes: NCI Yeast Anticancer Drug Screen. Data for the rad50 strain (AID 155);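 also: 0% = growth of vehicle-only cultures of the same strain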
# Recorded Conditions: S. cerevisiae rad50 strain growth inhibition; at 50.0 µM
This is part of a sample that, as a whole, favours compounds with a hit. Of some 79,000 tested, about 15% had one in any assay. The source made the active and inactive calls. Cut-off read from the data, not from the text of the source: active = growth inhibition above about 70%; inactive = the rest.
Choose one outcome from this list and give only that: active, inactive

Example entries begin here.
Compound: CC(=O)c1cccc(NC(=O)C(=O)C(C2OC(=O)c3ccccc32)[N+](=O)[O-])c1 (configuration not stated)
Assigned Label: inactive
--
Compound: Nc1cc(N)nc(S(=O)(=O)O)n1
Assigned Label: inactive
--
Compound: COC(=O)c1nc(N)nc(C(=O)OC)c1C(=O)c1ccc2ccccc2c1
Assigned Label: inactive
--
Compound: CCN(CCOC(=O)Nc1ccc(Cl)cc1)C(=O)Nc1ccc(Cl)cc1
Assigned Label: inactive

Exam item: Record request — test call for COC(=O)CC(c1ccc2c(c1)OCO2)N1CCOCC1 (configuration not stated)
Marked response: inactive

Exam item: Record request — test call for CN1C(=O)OC2C3NC(=O)OC3C(O)C(O)C21 (configuration not stated)
Marked response: inactive

----------
I'd appreciate it if you could supply growth inhibition values for the items below.
# Measurement Notes: NCI Yeast Anticancer Drug Screen. Data for the rad50 strain (AID 155);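 also: 0% = growth of vehicle-only cultures of the same strain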
# Recorded Conditions: S. cerevisiae rad50 strain growth inhibition; at 50.0 µM; active compounds read high
The panel holds about 79,000 compounds, 15% with a hit somewhere; the sample as a whole holds those more often.
Give bare numbers, in %.

Take a look at these entries with their results.
Compound: COC(=O)[C@@H]1CON(Cc2ccccc2)C1CC1(C)OCCO1 (stereo partly drawn)
Quantity Unit: %
growth inhibition: 0.85
--
Compound: NC(=O)c1c[n+]([O-])ccc1[N+](=O)[O-]
Quantity Unit: %
growth inhibition: 40.1
--
Compound: [N-]=[N+]=CC(=O)C1OC1c1ccc(Br)cc1 (stereo not drawn)
Quantity Unit: %
growth inhibition: 11.8
--
Compound: S=c1cc(Cc2ccccc2)[nH]c(=S)[nH]1
Quantity Unit: %
growth inhibition: -1.2
--
Compound: Cn1c(=O)c2c(ncn2CC(=O)O)n(C)c1=O
Quantity Unit: %
growth inhibition: -3.9

// each compound listed below needs its growth inhibition
1. Cc1cc(-n2cnc3c(N(CCO)CCO)ncnc32)ccc1[N+](=O)[O-]
2. C[N+]1(CC(O)C[N+]2(C)CCCCCC2)CCCCCC1
3. CCCc1cc(=O)oc2c3c(c4c(c12)OC(C)(C)C=C4)O[C@H](C)[C@@H](C)C3O (stereo partly drawn)

Marked response:
[10.1, 11.3, -6.25]

----------
# Measurement Notes: NCI Yeast Anticancer Drug Screen. Data for the rad50 strain (AID 155);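 also: 0% = growth of vehicle-only cultures of the same strain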
# Recorded Conditions: S. cerevisiae rad50 strain growth inhibition; at 50.0 µM; active compounds read high
This is part of a sample that, as a whole, favours compounds with a hit. Of some 79,000 tested, about 15% had one in any assay.
Value Type: growth inhibition (%)
One number for each entry, in %.

Molecule: Oc1[nH]c2ccccc2c1N=Nc1nc(-c2ccc(Br)cc2)cs1
Quantity Unit: %
growth inhibition: -24.9
--
Molecule: N#CC1(CCCI)CCCC1
Quantity Unit: %
growth inhibition: 9.3
--
Molecule: O=CC1N=C(Cc2ccccc2)OC1=O (configuration not stated)
Quantity Unit: %
growth inhibition: 25.6
--
Molecule: CN(CC(=O)O)Cc1ccccc1
Quantity Unit: %
growth inhibition: 9.5
--
Molecule: CCC(C)OC(=O)/C=C/c1ccccc1 (configuration not stated)
Quantity Unit: %
growth inhibition: 1.35
--
Molecule: CCOC(=O)C(NC(=O)c1ccccc1)(c1ccc(S(=O)(=O)Nc2onc(C)c2C)cc1)C(F)(F)F (configuration not stated)
Quantity Unit: %
growth inhibition: 7.3
--
Molecule: CC(O)C([NH-])C(=O)O.CC([NH-])C(=O)O.[Cu+2] (configuration not stated)
Quantity Unit: %
growth inhibition: 26.6
--
Molecule: CCNc1nc2c(ncn2C2CC(O)C(COP(=O)(O)O)O2)c(=O)[nH]1 (configuration not stated)
Quantity Unit: %
growth inhibition: 18.9
--
Molecule: CC(C)(C)NC(=O)CCC1C(C(=O)NC(C)(C)C)C2(Cl)C(Cl)=C(Cl)C1(Cl)C2(Cl)Cl (configuration not stated)
Quantity Unit: %
growth inhibition: 6.2
--
Molecule: CCOC(=O)c1cnc(C)nc1Nc1ccccc1
Quantity Unit: %
growth inhibition: 5.75

// each molecule listed below needs its growth inhibition
1. COc1cc(C2NCCC(c3ccccc3)(c3ccccc3)N2)cc(OC)c1OC (configuration not stated)
2. NC(N)=NCCCS

Marked response:
-30.9
11.9
